- Study system: Phosphodiesterase 7 (Homo sapiens, UniProt Q13946+Q9NP56)
- Assay info: Inhibition of full length PDE7 (unknown origin) using FAM-cAMP as substrate by fluorescence based analysis
- Format: protein assay
Bucketed by reported IC50, buckets being bucket 1 = under 60 nM, bucket 2 = from 60 nM up to 1000 nM, bucket 3 = 1000 nM and over

>>> print(df.to_string())
                   compound     class
0  O=S1(=O)N=C(O)c2ccccc2N1  bucket 3

Kindly state the category for this compound: "COc1ccc(Cn2c(=O)c3cc(OCC#N)ccc3n(C3CCSCC3)c2=O)cc1OC"
bucket 1

Kindly state the category for this compound: "COc1ccc(/C(CSc2nc3ccccc3c(=O)n2-c2ccccc2)=N\O)cc1"
bucket 3

Kindly state the category for this compound: "Br.c1ccc(-c2n/c(=N/CCC3CCOCC3)sn2-c2ccccc2)cc1"
bucket 3

Kindly state the category for this compound: COc1cc(CN(Cc2ccc(OC)cc2OC)c2ncnc3c2nnn3C2CC(C(F)(F)F)CCC2(F)F)cc(OC)c1 (stereo not drawn)
bucket 1

Kindly state the category for this compound: "COc1cc(-c2nc(NC3CCCC3)c3ccsc3n2)cc(OC)c1OC"
bucket 1

Kindly state the category for this compound: "CC(C)(C)CSc1nc2ccccc2c(=O)n1-c1ccccc1"
bucket 2

Kindly state the category for this compound: "S=c1[nH]c2ccccc2c(=S)n1-c1ccccc1"
bucket 2

Kindly state the category for this compound: "O=C1Nc2c(Cl)ccc(OCCO)c2C2(CCCCC2)N1"
bucket 1

Kindly state the category for this compound: "Fc1cc2nc(S)[nH]c(=S)c2cc1F"
bucket 2

Kindly state the category for this compound: "CSc1nc2c(C)cccc2c(=O)n1-c1c(F)cccc1F"
bucket 2

Kindly state the category for this compound: "Cn1nc(-c2ccc(Cl)cc2)s/c1=N\C1CCCCC1"
bucket 3

Kindly state the category for this compound: COc1ccc(Cn2c(=O)c3cc(OCC#N)ccc3n(C3CC[S+]([O-])CC3)c2=O)cc1OC (stereo not drawn)
bucket 1

====

- Study system: UniProtKB P49841
- Sequence (P49841 whole entry): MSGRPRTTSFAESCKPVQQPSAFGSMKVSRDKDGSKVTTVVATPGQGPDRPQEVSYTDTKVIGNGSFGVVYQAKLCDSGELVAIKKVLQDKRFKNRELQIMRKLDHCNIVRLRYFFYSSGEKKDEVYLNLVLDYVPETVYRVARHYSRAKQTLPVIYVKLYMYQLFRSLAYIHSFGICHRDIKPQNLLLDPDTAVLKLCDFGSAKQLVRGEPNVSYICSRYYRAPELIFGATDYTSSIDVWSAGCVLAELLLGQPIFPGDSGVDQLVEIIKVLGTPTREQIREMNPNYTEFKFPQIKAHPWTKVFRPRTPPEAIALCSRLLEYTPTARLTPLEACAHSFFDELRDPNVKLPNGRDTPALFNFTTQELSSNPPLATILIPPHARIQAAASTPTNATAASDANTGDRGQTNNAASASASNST
- Assay info: Inhibition of GSK-3beta (unknown origin)
Quantity name: pIC50
Would you please state pIC50, meaning minus log10 of the concentration in mol/L, as a bare number?

For "OCC/N=c1/nc(-c2ccccc2)n(-c2ccccc2)s1" , write its pIC50.
5.71

====

- Study system: Phosphodiesterase 7 (Homo sapiens, UniProt Q13946+Q9NP56)
- Assay info: Inhibition of recombinant PDE7 (unknown origin) expressed in Escherichia coli BL21 (DE3) using [3H]cAMP as substrate preincubated for 15 mins followed by compound addition and incubated for 1 hr by liquid scintillation method
Quantity name: IC50 (nM)
Expressed in nM, but write only the number.

Example entries and their recorded answers appear below.
In [3]: df
Out[3]:
                                 smiles_str  test_value
0             O=C1Nc2c(Cl)cccc2C2(CCCCC2)N1         170
1  O=C1Nc2c(Cl)cc(-c3ccccc3)cc2C2(CCCCC2)N1          16
2       O=C1Nc2c(Cl)ccc(OCCO)c2C2(CCCCC2)N1          55

For "CN1CCN(C(=O)c2ccc(-c3cc(Cl)c4c(c3)C3(CCCCC3)NC(=O)N4)cc2)CC1" , write its IC50.
14

====

- Study system: Phosphodiesterase 7 (Homo sapiens, UniProt Q13946+Q9NP56)
- Assay info: Inhibition of PDE7 (unknown origin) by fluorescent based assay
- Format: protein assay
Quantity name: IC50

Example entries and their recorded answers appear below.
In [3]: df
Out[3]:
                                   compound  quantity_name  test_value
0  c1ccc(-c2n/c(=N/CCN3CCOCC3)sn2-c2ccccc2)cc1           IC50     1590 nM
1  c1ccc(-c2n/c(=N/Cc3cccnc3)sn2-c2ccccc2)cc1           IC50      380 nM
2  N#Cc1cc(Cn2c(=O)c3cc(OC(CF)CF)ccc3n(C3CCN(C=O)CC3)c2=O)ccc1-c1ccccc1           IC50       37 nM
3  CC(C)Cn1c(=O)n(C)c(=O)c2nc[nH]c21 [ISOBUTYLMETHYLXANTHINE]           IC50     8100 nM
4           N=c1nc(-c2ccccc2)n(-c2ccccc2)s1           IC50     1020 nM

State IC50 (Phosphodiesterase 7 (Homo sapiens, UniProt Q13946+Q9NP56)) of "COc1cc(Cn2c(=O)c3cc(OC(CF)CF)ccc3n(C3CCN(C=O)CC3)c2=O)ccc1OCC(=O)N1CCCCC1" .
46 nM

State IC50 (Phosphodiesterase 7 (Homo sapiens, UniProt Q13946+Q9NP56)) of "COc1ccc(Cn2c(=O)c3cc(OC(CF)CF)ccc3n(C3CCN(C=O)CC3)c2=O)cc1OC" .
39 nM
